- test_method_notes: Caco-2 cell transmembrane transport experiment
- condition_context: human, Caco-2, pH 7.4, Papp A-B Sample_01, 10 μM, pH 7.4, 37° C., 90 min, apical to basolateral
property_measured: Papp A→B at 90 min, 10 μM (×10⁻⁶ cm/s)
Numbers only; they are read as ×10⁻⁶ cm/s.

Illustrative cases are given below, each with its answer.
| molecule | property_measured | unit | val |
| --- | --- | --- | --- |
| C=CC(=O)N1CCN(c2nc(=O)n(-c3c(C)ccnc3C(C)C)c3nc(-c4c(F)c(F)cc5ccoc45)c(Cl)cc23)[C@@H](C)C1 (single isomer, unassigned) [Compound 103-1] | Papp A→B at 90 min, 10 μM | ×10⁻⁶ cm/s | 12.1 |
| C=CC(=O)N1CCN(c2nc(=O)n(-c3c(C)ccnc3C(C)C)c3nc(-c4c(F)ccc5ccoc45)c(Cl)cc23)[C@@H](C)C1 (single isomer, unassigned) [Compound 73-1] | Papp A→B at 90 min, 10 μM | ×10⁻⁶ cm/s | 16 |
| C=CC(=O)N1CCN(c2nc(=O)n(-c3c(C)ccnc3C(C)C)c3nc(-c4c(O)cccc4F)c(F)cc23)[C@@H](C)C1 (atropisomer, axis not shown) [AMG510, reference compound] | Papp A→B at 90 min, 10 μM | ×10⁻⁶ cm/s | 5.83 |
| C=CC(=O)N1CCN(c2nc(=O)n(-c3c(C)ccnc3C(C)C)c3nc(-c4c(F)ccc5ccoc45)c(F)cc23)[C@@H](C)C1 (single isomer, unassigned) [Compound 70-1] | Papp A→B at 90 min, 10 μM | ×10⁻⁶ cm/s | 19 |
| C=CC(=O)N1C[C@H](C)N(c2nc(=O)n(-c3c(C)ccnc3C(C)C)c3nc(-c4c(F)c(F)cc5ccoc45)c(Cl)cc23)C[C@H]1C (single isomer, unassigned) [Compound 104-1] | Papp A→B at 90 min, 10 μM | ×10⁻⁶ cm/s | 11.2 |

Enquiry: Requested read-out: Papp A→B at 90 min, 10 μM. Entry: C=CC(=O)N1C[C@H](C)N(c2nc(=O)n(-c3c(C)ccnc3C(C)C)c3nc(-c4c(F)ccc5ccoc45)c(Cl)cc23)C[C@H]1C (single isomer, unassigned) [Compound 90-1]
Return: 20.1

The origin of these recorded values is patent US20220389013A1.
